test: Determination of dye pKa via pH study, dye immobilized in 40% DMAA hydrogel; assay type: physicochemical; details: dye immobilized in 40% DMAA hydrogel; polymerizable dyes immobilized using 40% DMAA, pH study
Measured Property: pKa
// print number alone

Input O=S(=O)(O)c1cc(O)c2ccc3c(S(=O)(=O)O)cc(S(=O)(=O)O)c4ccc1c2c34 [HPTS, 8-hydroxypyrene-1,3,6-trisulfonic acid] . Output pKa: 7.3
